Provide the reported SILAC ratio Nup205 of each item.
# Test system: AEA-DA lipid probe targets in Neuro2a cells
# measurementContext: competitor 25 μM
Numbers only.

Hi team, please reply with SILAC ratio Nup205 for each item in this list.
1. CN1CCN(C(=O)c2c(-c3ccccc3)c3cc([N+](=O)[O-])ccc3n2C)CC1
2. C=CCN(C)CCCCCCOc1ccc(C(=O)c2ccc(Br)cc2)c(F)c1 [Ro 48-8071, reference compound]
3. CN1CCN(C(=O)c2[nH]c3ccc([N+](=O)[O-])cc3c2-c2ccccc2)CC1
4. O=C(/C=C/c1cccnc1)NCCCCC1CCN(C(=O)c2ccccc2)CC1 [FK-866, reference compound]

[A]
1: 1.2; 2: 0.9; 3: 1.2; 4: 0.9

----------
# testedTarget: AEA-DA lipid probe targets in Neuro2a cells (Mus musculus, UniProt Q8R0X7)
# Sequence (Q8R0X7 whole entry): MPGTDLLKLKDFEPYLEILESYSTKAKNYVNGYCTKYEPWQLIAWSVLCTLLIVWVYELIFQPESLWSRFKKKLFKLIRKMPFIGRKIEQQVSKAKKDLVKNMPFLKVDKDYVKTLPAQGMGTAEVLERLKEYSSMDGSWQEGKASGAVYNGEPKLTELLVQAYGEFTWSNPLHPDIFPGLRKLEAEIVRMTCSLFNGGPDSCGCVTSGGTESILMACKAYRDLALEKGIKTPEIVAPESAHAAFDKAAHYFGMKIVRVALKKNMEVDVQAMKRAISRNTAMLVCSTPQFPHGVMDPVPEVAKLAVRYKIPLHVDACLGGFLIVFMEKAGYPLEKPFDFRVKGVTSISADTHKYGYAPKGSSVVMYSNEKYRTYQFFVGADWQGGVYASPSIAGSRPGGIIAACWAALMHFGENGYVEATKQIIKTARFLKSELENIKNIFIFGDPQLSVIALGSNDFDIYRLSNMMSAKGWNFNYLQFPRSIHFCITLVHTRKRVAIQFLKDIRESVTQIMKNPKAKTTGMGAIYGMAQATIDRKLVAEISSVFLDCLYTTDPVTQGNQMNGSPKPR
# measurementContext: competitor 25 μM
parameter: SILAC ratio, Sgpl1
One number for each entry.

Past entries and their recorded results:
C=CCN(C)CCCCCCOc1ccc(C(=O)c2ccc(Br)cc2)c(F)c1 [Ro 48-8071, reference compound] : 1.2
CN1CCN(C(=O)c2c(-c3ccccc3)c3cc([N+](=O)[O-])ccc3n2C)CC1 : 1.4
CN1CCN(C(=O)c2[nH]c3ccc([N+](=O)[O-])cc3c2-c2ccccc2)CC1 : 1.5

Kindly review the next compound as well.
With AEA-DA lipid probe targets in Neuro2a cells (Mus musculus, UniProt Q8R0X7) as the test system, O=C(/C=C/c1cccnc1)NCCCCC1CCN(C(=O)c2ccccc2)CC1 [FK-866, reference compound] showed SILAC ratio, Sgpl1 of 1.7

----------
# testedTarget: AEA-DA lipid probe targets in Neuro2a cells (Mus musculus, UniProt Q91ZN5)
# Sequence (Q91ZN5 1-431): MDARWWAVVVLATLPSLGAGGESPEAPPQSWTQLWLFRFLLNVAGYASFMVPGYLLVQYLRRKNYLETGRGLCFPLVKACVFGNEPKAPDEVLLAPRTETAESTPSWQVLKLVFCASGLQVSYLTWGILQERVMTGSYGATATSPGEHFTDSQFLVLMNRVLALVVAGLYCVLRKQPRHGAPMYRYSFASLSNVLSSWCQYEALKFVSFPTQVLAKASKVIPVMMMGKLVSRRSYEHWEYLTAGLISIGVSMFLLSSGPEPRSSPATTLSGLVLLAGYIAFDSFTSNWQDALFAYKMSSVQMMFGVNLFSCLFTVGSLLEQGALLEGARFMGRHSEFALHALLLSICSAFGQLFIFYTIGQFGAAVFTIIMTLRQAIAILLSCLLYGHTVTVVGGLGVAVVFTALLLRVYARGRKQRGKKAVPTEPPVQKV
# measurementContext: competitor 25 μM
parameter: SILAC ratio, Slc35b2
One number for each entry.

Past entries and their recorded results:
CN1CCN(C(=O)c2[nH]c3ccc([N+](=O)[O-])cc3c2-c2ccccc2)CC1 : 1.1
C=CCN(C)CCCCCCOc1ccc(C(=O)c2ccc(Br)cc2)c(F)c1 [Ro 48-8071, reference compound] : 0.9
CN1CCN(C(=O)c2c(-c3ccccc3)c3cc([N+](=O)[O-])ccc3n2C)CC1 : 1.3

Kindly review the next compound as well.
The recorded SILAC ratio, Slc35b2 for entry O=C(/C=C/c1cccnc1)NCCCCC1CCN(C(=O)c2ccccc2)CC1 [FK-866, reference compound] equals 1.0

----------
Provide the reported SILAC ratio, Sar1a of each item.
# testedTarget: AEA-DA lipid probe targets in Neuro2a cells (Mus musculus, UniProt P36536)
# Sequence (P36536 whole entry): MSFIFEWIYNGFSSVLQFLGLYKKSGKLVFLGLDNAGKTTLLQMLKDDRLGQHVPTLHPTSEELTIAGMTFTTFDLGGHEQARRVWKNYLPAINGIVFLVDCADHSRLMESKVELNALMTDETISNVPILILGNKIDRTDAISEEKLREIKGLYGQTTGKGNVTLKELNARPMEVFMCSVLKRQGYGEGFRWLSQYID
# measurementContext: competitor 25 μM
Give bare numbers.

Past entries and their recorded results:
CN1CCN(C(=O)c2c(-c3ccccc3)c3cc([N+](=O)[O-])ccc3n2C)CC1 : 1.4
O=C(/C=C/c1cccnc1)NCCCCC1CCN(C(=O)c2ccccc2)CC1 [FK-866, reference compound] : 1.0
CN1CCN(C(=O)c2[nH]c3ccc([N+](=O)[O-])cc3c2-c2ccccc2)CC1 : 1.7

Kindly review the next compound as well.
The recorded SILAC ratio, Sar1a for entry C=CCN(C)CCCCCCOc1ccc(C(=O)c2ccc(Br)cc2)c(F)c1 [Ro 48-8071, reference compound] equals 1.1

----------
# Test system: AEA-DA lipid probe targets in Neuro2a cells
# measurementContext: competitor 25 μM; second Tmpo line (r55)
Provide the reported SILAC ratio, Tmpo of each item.
Numbers only.

Past entries and their recorded results:
CN1CCN(C(=O)c2[nH]c3ccc([N+](=O)[O-])cc3c2-c2ccccc2)CC1 [MJN228] : 1.4
O=C(/C=C/c1cccnc1)NCCCCC1CCN(C(=O)c2ccccc2)CC1 [FK-866, reference compound] : 1.1

Hi team, please reply with SILAC ratio, Tmpo for each item in this list.
1. C=CCN(C)CCCCCCOc1ccc(C(=O)c2ccc(Br)cc2)c(F)c1 [Ro 48-8071, reference compound]
2. CN1CCN(C(=O)c2c(-c3ccccc3)c3cc([N+](=O)[O-])ccc3n2C)CC1 [KML110]

[A]
1: 1.2; 2: 1.5

----------
# testedTarget: AEA-DA lipid probe targets in Neuro2a cells (Mus musculus)
# measurementContext: competitor 25 μM
Provide the reported SILAC ratio, Hsd17b12 of each item.
One number for each entry.

O=C(/C=C/c1cccnc1)NCCCCC1CCN(C(=O)c2ccccc2)CC1 [FK-866, reference compound] : 1.7

Hi team, please reply with SILAC ratio, Hsd17b12 for each item in this list.
1. CN1CCN(C(=O)c2[nH]c3ccc([N+](=O)[O-])cc3c2-c2ccccc2)CC1
2. CN1CCN(C(=O)c2c(-c3ccccc3)c3cc([N+](=O)[O-])ccc3n2C)CC1
3. C=CCN(C)CCCCCCOc1ccc(C(=O)c2ccc(Br)cc2)c(F)c1 [Ro 48-8071, reference compound]

[A]
1. 1.6
2. 1.7
3. 0.9

----------
# testedTarget: AEA-DA lipid probe targets in Neuro2a cells (Mus musculus)
# measurementContext: competitor 25 μM
Provide the reported SILAC ratio Myl6 of each item.
Numbers only.

Past entries and their recorded results:
CN1CCN(C(=O)c2[nH]c3ccc([N+](=O)[O-])cc3c2-c2ccccc2)CC1 [MJN228] : 1.0
O=C(/C=C/c1cccnc1)NCCCCC1CCN(C(=O)c2ccccc2)CC1 [FK-866, reference compound] : 1.3
CN1CCN(C(=O)c2c(-c3ccccc3)c3cc([N+](=O)[O-])ccc3n2C)CC1 [KML110] : 1.4

Kindly review the next compound as well.
The recorded SILAC ratio Myl6 for entry C=CCN(C)CCCCCCOc1ccc(C(=O)c2ccc(Br)cc2)c(F)c1 [Ro 48-8071, reference compound] equals 0.7

----------
# testedTarget: AEA-DA lipid probe targets in Neuro2a cells (Mus musculus)
# Sequence (O08749 36-509): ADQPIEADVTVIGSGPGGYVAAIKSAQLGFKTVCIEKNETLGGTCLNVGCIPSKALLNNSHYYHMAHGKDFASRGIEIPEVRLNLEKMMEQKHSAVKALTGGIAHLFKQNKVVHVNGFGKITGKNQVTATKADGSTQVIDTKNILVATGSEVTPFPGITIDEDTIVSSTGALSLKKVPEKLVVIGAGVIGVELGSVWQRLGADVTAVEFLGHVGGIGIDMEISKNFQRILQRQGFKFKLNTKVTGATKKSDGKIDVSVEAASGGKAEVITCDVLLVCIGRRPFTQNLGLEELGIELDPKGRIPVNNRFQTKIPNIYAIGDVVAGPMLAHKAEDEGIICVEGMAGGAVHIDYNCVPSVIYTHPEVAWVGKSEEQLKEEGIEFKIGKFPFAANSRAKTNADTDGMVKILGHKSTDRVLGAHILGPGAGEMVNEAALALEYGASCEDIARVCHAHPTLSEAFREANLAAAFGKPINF
# measurementContext: competitor 25 μM
parameter: SILAC ratio Dld
Give bare numbers.

Past entries and their recorded results:
CN1CCN(C(=O)c2c(-c3ccccc3)c3cc([N+](=O)[O-])ccc3n2C)CC1 : 1.3
C=CCN(C)CCCCCCOc1ccc(C(=O)c2ccc(Br)cc2)c(F)c1 [Ro 48-8071, reference compound] : 0.8
O=C(/C=C/c1cccnc1)NCCCCC1CCN(C(=O)c2ccccc2)CC1 [FK-866, reference compound] : 1.1

The recorded SILAC ratio Dld for entry CN1CCN(C(=O)c2[nH]c3ccc([N+](=O)[O-])cc3c2-c2ccccc2)CC1 equals 1.2

----------
# testedTarget: AEA-DA lipid probe targets in Neuro2a cells (Mus musculus, UniProt Q99LR1)
# Sequence (Q99LR1 1-398): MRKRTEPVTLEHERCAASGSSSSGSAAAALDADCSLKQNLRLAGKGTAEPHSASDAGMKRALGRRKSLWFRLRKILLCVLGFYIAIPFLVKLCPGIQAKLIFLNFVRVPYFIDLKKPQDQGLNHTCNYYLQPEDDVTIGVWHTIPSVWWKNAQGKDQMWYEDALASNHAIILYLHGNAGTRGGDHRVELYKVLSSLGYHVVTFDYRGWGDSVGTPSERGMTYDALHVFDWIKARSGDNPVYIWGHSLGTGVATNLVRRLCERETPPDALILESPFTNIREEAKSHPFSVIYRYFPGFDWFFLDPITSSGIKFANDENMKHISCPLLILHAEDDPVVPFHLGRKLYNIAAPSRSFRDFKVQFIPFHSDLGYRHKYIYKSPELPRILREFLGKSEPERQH
# measurementContext: competitor 25 μM
parameter: SILAC ratio, Abhd12
Answers are plain numbers.

Past entries and their recorded results:
CN1CCN(C(=O)c2[nH]c3ccc([N+](=O)[O-])cc3c2-c2ccccc2)CC1 [MJN228] : 1.2
O=C(/C=C/c1cccnc1)NCCCCC1CCN(C(=O)c2ccccc2)CC1 [FK-866, reference compound] : 1.0
C=CCN(C)CCCCCCOc1ccc(C(=O)c2ccc(Br)cc2)c(F)c1 [Ro 48-8071, reference compound] : 1.0

Kindly review the next compound as well.
The recorded SILAC ratio, Abhd12 for entry CN1CCN(C(=O)c2c(-c3ccccc3)c3cc([N+](=O)[O-])ccc3n2C)CC1 [KML110] equals 1.2

Where these numbers come from: patent US10168342B2
